Measured solubility thermodynamic, listed per entry.
Assay: Concentration of dissolved indolocarbazole obtained in aqueous solutions (HPLC)
Conditions: peg 600/ba/pvp/h2o, organic solvent or mixture, Concentration Obtained, Example 18: 50% PEG 600, 2% BA, 10% PVP, 38% H2O; target 10 mg/ml
Reply with just the number (in µg/mL).

{"molecule": "COC(=O)C1(O)CC2OC1(C)n1c3ccccc3c3c4c(c5c6ccccc6n2c5c31)C(=O)NC4 (centres unmarked) [Compound K-252a]", "solubility thermodynamic, µg/mL": 10000}

Exercise: Bench note: what solubility thermodynamic did CN[C@@H]1C[C@H]2O[C@@](C)([C@@H]1OC)n1c3ccccc3c3c4c(c5c6ccccc6n2c5c31)C(=O)NC4 [Staurosporine, staurosporine] show?
Solution: 8410
